// reported inhibition per item
- test system: Autotaxin (Homo sapiens, UniProt Q13822)
- assay overview: Inhibition of human recombinant C-terminal FLAG-tagged autotaxin expressed in baculovirus-infected Sf9 cells assessed as FS-3 hydrolysis at 10 uM relative to control
readout kind: inhibition (%)

>>> recorded_value("Cc1cc(C)c(/N=N/c2cc(C)c(/N=N/c3c(S(=O)(=O)O)cc4cc(Nc5ccccc5)ccc4c3O)cc2C)c(S(=O)(=O)O)c1")
27
>>> recorded_value("O=C(O)c1cc(O)c(O)c(OC(=O)c2cc(O)c(O)c(O)c2CNc2ccc3cc(S(=O)(=O)O)cc(S(=O)(=O)O)c3c2)c1")
2
>>> recorded_value("CC(=O)Nc1cc(S(=O)(=O)O)cc2cc(S(=O)(=O)O)c(/N=N/c3ccc(C(=O)Nc4ccc5cc(S(=O)(=O)O)ccc5c4)cc3)c(O)c12")
29
>>> recorded_value("O=C(Nc1ccc2cc(S(=O)(=O)O)ccc2c1)c1ccc([N+](=O)[O-])cc1")
-1

Source of measurements: ChEMBL document CHEMBL1156229
